The values you see were collected from ChEMBL document CHEMBL1149127.

tested on: PC-3; assay: In vitro cytotoxicity against mouse PC3 prostate cancer cell line.; type: functional, cell-based; conditions: Homo sapiens
Readings of log10 IC50 for the listed compounds
Lab note - IC50 converted to log10 from values in µM.

| Compound smiles | Observed value |
| --- | --- |
| CCCN(CCC)c1c([N+](=O)[O-])cc(S(=O)(=O)Nc2cccc(Cl)c2)cc1[N+](=O)[O-] | 1.26 |
| CCCN(CCC)c1c([N+](=O)[O-])cc(S(=O)(=O)Nc2ccc(Cl)cc2)cc1[N+](=O)[O-] | 1.20 |
| CCN(CC)c1c([N+](=O)[O-])cc(S(=O)(=O)Nc2ccccc2)cc1[N+](=O)[O-] | 1.75 |
| CCCN(CCC)c1c([N+](=O)[O-])cc(S(=O)(=O)Nc2ccc(Cl)c(Cl)c2)cc1[N+](=O)[O-] | 1.18 |
| CCCN(CCC)c1c([N+](=O)[O-])cc(S(=O)(=O)Nc2cc(Cl)cc(Cl)c2)cc1[N+](=O)[O-] | 1.04 |
| CCCN(CCC)c1c([N+](=O)[O-])cc(S(=O)(=O)Nc2cccc(C)c2)cc1[N+](=O)[O-] | 1.40 |

log10 IC50 for `CCCN(CCC)c1c([N+](=O)[O-])cc(S(=O)(=O)Nc2ccc(C)cc2)cc1[N+](=O)[O-]` is 1.32

log10 IC50 in this record for `CCCCN(CCCC)c1c([N+](=O)[O-])cc(S(=O)(=O)Nc2ccccc2)cc1[N+](=O)[O-]` : 1.11

Consider `COc1cc2cc(c1Cl)N(C)C(=O)C[C@H](OC(=O)C(C)C)[C@]1(C)O[C@@H]1[C@H](C)[C@@H]1C[C@@](O)(NC(=O)O1)[C@H](OC)/C=C/C=C(\C)C2` . Its measured log10 IC50 is -4.22

Briefly, log10 IC50 measured for `CCCN(CCC)c1c([N+](=O)[O-])cc(S(=O)(=O)Nc2ccc(OC)cc2)cc1[N+](=O)[O-]` : 1.49

So, `CCCN(CCC)c1c([N+](=O)[O-])cc(S(N)(=O)=O)cc1[N+](=O)[O-]` ? Its log10 IC50 was 1.75

Measured log10 IC50, `CCCN(CCC)c1c([N+](=O)[O-])cc(S(=O)(=O)Nc2cccc(OC)c2)cc1[N+](=O)[O-]` : 1.56

Looking up `CCCN(CCC)c1c([N+](=O)[O-])cc(S(=O)(=O)Nc2ccccc2)cc1[N+](=O)[O-]` , I see its log10 IC50 listed as 1.49
